target: various β-lactamases (bacterial lysates) (Klebsiella pneumoniae); assay: biochemical; assay type: biochemical; details: AZT IC50 KP1008 KPC-2
Documented IC50 across a set of compounds

O=C(O)[C@H]1/C(=C/CO)O[C@@H]2CC(=O)N21 [Clavulanic Acid, reference compound] : 11.1 µM

Query: Give the reported IC50 for this compound. C[C@]1(Cn2ccnn2)[C@H](C(=O)O)N2C(=O)C[C@H]2S1(=O)=O [Tazobactam, reference compound]
Response: 7.39 µM

* * *

Quick reference: IC50 of the listed items.
target: various β-lactamases (bacterial lysates) (Klebsiella pneumoniae, UniProt Q9F663, H272Y); assay: biochemical
Sequence (Q9F663 whole entry H272Y, looked up): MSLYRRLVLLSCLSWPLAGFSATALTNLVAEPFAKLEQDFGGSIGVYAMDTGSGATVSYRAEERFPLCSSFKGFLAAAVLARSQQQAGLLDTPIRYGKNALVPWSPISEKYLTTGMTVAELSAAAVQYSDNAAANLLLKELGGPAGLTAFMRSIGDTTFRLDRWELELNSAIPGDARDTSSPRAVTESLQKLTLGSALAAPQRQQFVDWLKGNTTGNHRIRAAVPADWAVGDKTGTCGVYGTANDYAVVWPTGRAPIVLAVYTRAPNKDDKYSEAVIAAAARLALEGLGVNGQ

Query: Hello, please tell me recorded IC50 for this one: `O=C(O)C[C@@H]1CC[C@H](NC(=O)c2ccccc2)B(O)O1`
Response: < 1.8 µM

Query: Provide measured IC50 value, entry: `CCOC(=O)C[C@@H]1CC[C@H](NC(=O)Cc2cccs2)B(O)O1`
Response: > 6.15 µM

Query: Determine from records and report IC50 for CSCCC(N)C(=O)N[C@H]1CC[C@@H](CC(=O)O)OB1O (some centres unmarked)
Response: < 1.64 µM

Query: Tell me measured IC50 for `O=C(O)C[C@@H]1CC[C@H](NC(=O)CCc2ccccc2)B(O)O1` please.
Response: < 1.64 µM

Query: Look up and state reported IC50 for `O=C(O)C[C@@H]1CC[C@H](NC(=O)c2ccc(Cn3cnnn3)cc2)B(O)O1`
Response: < 1.39 µM

Query: For `Nc1nc(/C(=N/OCc2cc(=O)c(O)cn2O)C(=O)N[C@H]2CC[C@@H](CC(=O)O)OB2O)cs1` , write its IC50.
Response: < 1.04 µM

Query: Give me measured IC50, please, for this compound: `O=C(O)C[C@@H]1CC[C@H](NC(=O)C[C@@H]2CCCCN2)B(O)O1`
Response: 1.68 to 6.71 µM

Query: Identify IC50 associated with the compound `O=C(O)C[C@@H]1CC[C@H](NC(=O)Cc2cc(F)cc(F)c2)B(O)O1`
Response: < 1.53 µM
